Data credit: paper PMC11249646

# measured.target: CIB1 and αIIb interaction (CIB1-GST : F-αIIb peptide) (Homo sapiens)
# Construct: made in house; host or cells: BL-21 plus RIL cells (E. coli)
# Sequence (Q99828 1-191): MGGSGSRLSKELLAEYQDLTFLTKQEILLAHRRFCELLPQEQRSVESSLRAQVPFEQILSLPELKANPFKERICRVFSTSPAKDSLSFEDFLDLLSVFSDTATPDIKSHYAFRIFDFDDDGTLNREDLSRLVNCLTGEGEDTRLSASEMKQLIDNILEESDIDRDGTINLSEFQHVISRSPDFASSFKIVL
# test.protocol: FP assay, 1536-well qHTS format (primary and confirmatory screen)
# Type: binding
# recorded.conditions: qHTS primary screen hits, Table S2; negative sign = inhibitory curve; several classes where COUNT > 1
quantity.kind: Curve Class
Keep it simple and answer with nothing but the number.

Query string: Entry NC(=O)c1ccc(O)c2ncccc12 has what Curve Class?
Result string: -1.4

Query string: Also, CCCc1c(O)c(O)c(C(=O)O)c2cc(Cc3ccccc3)c(C)cc12 please.
Result string: -2.2

Query string: Then this compound: CC[C@]1(O)CC[C@H]2[C@@H]3CCC4=CCCC[C@@H]4[C@H]3CC[C@@]21C
Result string: -1.1

Query string: Now consider Cl.O=[N+]([O-])c1cccc(CNc2ccc(S(=O)(=O)Nc3nccs3)cc2)c1O .
Result string: -1.4

Query string: // query: O=C(O)C(F)(F)F.O=S(=O)(Nc1ccc(C2CCNCC2)cc1)c1ccc(NCc2ccc(Br)cc2O)cc1
Result string: -2.4

Query string: Another compound: Cl.O=c1c2ccccc2nc2sc(Nc3cccc(N4CCNCC4)c3)nn12
Result string: -2.4

Query string: What about CN1CCN(c2ccc(Nc3c4ccccc4nc4ccccc34)cc2)CC1.O=C(O)C(F)(F)F ?
Result string: -2.4

Query string: Here is the next compound: CC1=C(C(=O)Nc2ccc(C(=O)O)cc2)C(c2ccccc2Cl)N=C(Nc2nc3ccccc3o2)N1.O=C(O)C(F)(F)F (centres unmarked)
Result string: -2.4
